Recorded growth inhibition by entry
PROTOCOL_NOTES: NCI Yeast Anticancer Drug Screen. Data for the cln2 rad14 strain (AID 165);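 note: 0% = growth equal to vehicle treated cultures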
DETAILS: S. cerevisiae cln2 rad14 strain, at 50.0 µM, active compounds read high
Compounds without any hit were thinned out: in the full panel of roughly 79,000, 15% have a hit.
ENDPOINT: growth inhibition (%)

COMPOUND | READOUT_VALUE
CN(C)CCBr | 64.2
Cc1cc(N(CCCl)CCCl)ccc1C=Nc1ccccc1F | -40.4
COC(=O)c1ccccc1NP(=O)(O)Oc1ccccc1 (tested in a mixture with another compound) | -32.5
CCN(CC)CC(=O)c1cc2ccccc2c2ccccc12 | 31.1
CC[C@H]1CN2CCc3c([nH]c4ccccc34)[C@@H]2C[C@@H]1/C(=C/OC)C(=O)OC (tested in a mixture with another compound) | 3.6
O=[N+]([O-])c1ccc([Se]c2ncccn2)c([N+](=O)[O-])c1 | -8.75
CCCC(C)C1(C)C(=O)NC(=O)N(C)C1=O (configuration not stated) | 11.8
O=c1cc(O)c1=O | 14.9
ICCCI | 3.8
O=[N+]([O-])c1ccccc1-c1ccccc1 | 13.2
CCOC(=O)C(Cc1ccc(N(CCCl)CCCl)cc1)NC(=O)C(N)CO (configuration not stated) | -1.3
CC(C)=C(OP1(=S)OCCN1C)C(C)(C)C(=O)N(C)C (configuration not stated) | 12.8

---

PROTOCOL_NOTES: NCI Yeast Anticancer Drug Screen. Data for the mlh1 rad18 strain (AID 175)
DETAILS: S. cerevisiae mlh1 rad18 strain growth inhibition; at 50.0 µM (retest, dose inferred, filed as 5.0)
About 79,000 compounds went through this panel and 15% of them were active in at least one assay; those are over-represented in the sample as a whole. The source made the active and inactive calls. Cut-off read from the data, not from the text of the source: active = growth inhibition above about 70%; inactive = the rest.
Labels: label 1 = active, label 0 = inactive

COMPOUND | CAT
NCCNCCNCCNCCN (tested in a mixture with another compound) | label 0
C[CH2][Sn]1([CH2]C)[O]C2C(OC)OC3COC(c4ccccc4)OC3C2[O]1 (centres undefined) | label 0
CCOC(=O)c1[nH]cnc1/N=N/N(C)N | label 1
COc1ccccc1[As]=[As]c1ccccc1OC (centres undefined) | label 1

---

PROTOCOL_NOTES: NCI Yeast Anticancer Drug Screen. Data for the sgs1 mgt1 strain (AID 161);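 note: 0% = growth of cultures given vehicle only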
DETAILS: S. cerevisiae sgs1 mgt1 strain, at 50.0 µM, active compounds read high
Protocol: Growth inhibition of yeast strains with defined genetic alterations is measured as a screen for potential anti-cancer activity. Selected strains with alterations in DNA damage repair or cell cycle control were exposed to compounds and growth inhibition was measured relative to vehicle treated controls. The strain used in this assay is sgs1 mgt1
This is part of a sample that, as a whole, favours compounds with a hit. Of some 79,000 tested, about 15% had one in any assay.
Recorded growth inhibition by entry

INPUT_SMILES | growth inhibition / %
Nc1[nH]c(=S)[nH]c(=O)c1Cn1ccnc1 | -23.4
O=P(O)(O)CCCCP(=O)(O)O.[Zn+2] | 1.6
O=C(Nc1ccc([As](=O)(O)O)cc1)Nc1cccc(Cl)c1Cl | -8
N#CCCCCCl | 16.3
N#C[S-].N#C[S-].[Au+3].[Au+3].[CH3-].[CH3-].[CH3-].[CH3-] | 61.5

---

PROTOCOL_NOTES: NCI Yeast Anticancer Drug Screen. Data for the mec2-1 strain (AID 157)
DETAILS: S. cerevisiae mec2-1 strain, at 50.0 µM
This is part of a sample that, as a whole, favours compounds with a hit. Of some 79,000 tested, about 15% had one in any assay. Calls of active or inactive are those of the source. Cut-off read from the data, not from the text of the source: active = growth inhibition above about 70%; inactive = the rest.
Labels: y for active, n for inactive

COMPOUND | CAT
O=NNc1ccc2ccccc2n1 | n
[C-]#[O+].[C-]#[O+].[Mo].c1ccc([PH+](CC[PH+](c2ccccc2)c2ccccc2)c2ccccc2)cc1.c1ccc([PH+](CC[PH+](c2ccccc2)c2ccccc2)c2ccccc2)cc1 | n
CN1C(=O)C(=Cc2cccc([N+](=O)[O-])c2)C(=O)N(C)C1=O | n
O=C1CC2(CCNCC2)C(=O)N1N1CCOCC1 | n
CP1CC(Br)C(Br)C1 (stereo unspecified) | n
CCN1CC2(C)CCC(OC)C34C5CC6CCC(O)(C5C(=O)O6)C(C(O)C23)C14 (stereo unspecified) | n
CNC(=O)Oc1ccccc1N | n
O=C1CC(c2cccc(Br)c2)n2cccc21 (stereo unspecified) | n
N.O=S(=O)(O)O.[Al] | n
O=[As](O)(O)c1ccccc1 | n
O=C(CN1CC1)NCCCCCCCNC(=O)CN1CC1 | n
CC1(C)C2=CC[C@H]3[C@@H]4CC[C@H](O)[C@@]4(C)CC[C@@H]3[C@@]2(C)CC[C@@H]1O | n
C[N+](CCCl)(CCCl)Cc1cc([N+](=O)[O-])cc([N+](=O)[O-])c1 | n
CC(COC(=O)NCc1ccc(Cl)cc1Cl)OC(N)=O (stereo unspecified) | n
Cc1cccc[c]1[Sb](=[O])([OH])[OH] | n
C=C1C(C)C2C(Cc3ccccc3)NC(=O)C23C(OC(C)=O)/C=C/C(C)(O)CC(C)C/C=C/C3C1O (stereo unspecified) | y
Cc1ccc2c(O)c3c(cc2c1)C(=O)c1c2c(cc(O)c1C3=O)C1(C)OC(O2)C(O)C(N(C)C)C1O (stereo unspecified) | y
O=P1(N(CCCl)CCCl)Oc2c(Cl)cc(Cl)c(Cl)c2Cc2c(Cl)c(Cl)cc(Cl)c2O1 | n
OC1=C2CCCCCC2=[N+]2CCCCC2C1 (stereo unspecified) | n
O=C1CC(c2ccccc2)n2cccc21 (stereo unspecified) | n
COc1ccc(NC2=NCCO2)c2ccccc12 | n
O=C(O)c1ccc(Cl)c(Cl)c1 | n
[Be]=[Se] | n
O=C(O)CN(CCN(CC(=O)O)CC(=O)O)CC(=O)O.[Cl][Pd][Cl] | n
C=CCc1cc(-c2cc(CC=C)c(O)c(CN(CCCl)CCCl)c2)cc(CN(CCCl)CCCl)c1O | n
COc1ccc2c(c1O)C13CCN(C)C(C2)C1CCC(O)C3 (stereo unspecified) | n
O=C(O)c1ccccc1.O=C(O)c1ccccc1.O=C(O)c1ccccc1.O=C(O)c1ccccc1.[Cu].[Cu] | n
ClCCN(CCCl)Cc1c2ccccc2cc2c1ccc1ccccc12 | n
CN1C2CCC1CC(=O)C2 | n
C#CCOC(=O)C=[N+]=[N-] | n
CCOP(=S)(OCC)Oc1ccccc1 | n
